For each entry below, report its zone of inhibition, test strain A value.
System: Staphylococcus simulans (ATCC 11631)
method-description: Radial diffusion assay
Format: cell-based
condition-set: TCA precipitated culture supernatant, 100 x concentrated; 10 units = 1 mm diameter clear zone around the 3 mm sample well
Please reply with the bare figure in units and do not write the unit itself.

Which zone of inhibition, test strain A value is on record for Marinasin 5: Arenicola marina antimicrobial polypeptide, amino acids 1 to 49 of SEQ ID NO: 24, expressed in Aspergillus oryzae (MKFLLPLMVVMAFAAVAMATADTEPVEREEGVFIMLPFVEDDMLEKPIL; listed as Arenicola marina) ?
22

Quick check: zone of inhibition, test strain A of Marinasin 2A: Arenicola marina antimicrobial polypeptide, amino acids 1 to 46 of SEQ ID NO: 12, expressed in Aspergillus oryzae (MNQITLLMLLVAVAVMATVTGQSLDDESDVENVSQPEQRGWCWQWT; listed as Arenicola marina) ?
34

Endpoint output: zone of inhibition, test strain A of Marinasin 4: Arenicola marina antimicrobial polypeptide, amino acids 1 to 45 of SEQ ID NO: 22, expressed in Aspergillus oryzae (MKPIILLMLLVAVVVMATVTAEPLDEESDVEIVSQPEQRIPCWTP; listed as Arenicola marina) . Value?
14

Give the measured zone of inhibition, test strain A of Marinasin 1B: Arenicola marina antimicrobial polypeptide, amino acids 1 to 49 of SEQ ID NO: 8, expressed in Aspergillus oryzae (MKFFLPIMIALAFAAVAMATADTEPVEPEEELSIMLPFVEDDLLEKPIP; listed as Arenicola marina) .
22
